tested on: Saccharomyces cerevisiae; test: protein stability index of tFT-peptide fusion (C-terminal peptide) (PSI (0-1 scale)); higher = more stable (slower turnover); settings: genetic background: wild type; temperature: 30 C;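 note: PSI is a weighted mean of sequencing reads over stability bins, variants kept only with over 10 reads, mCherry proximal and sfGFP distal, peptide attached via GGGS linker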
measurement-name: protein stability index

{"columns": ["sequence-content", "measured-result"],
 "data": [
  ["VIMAEVLCVSNL", 0.508],
  ["VVGAIVILRGLR", 0.632],
  ["CVLVGGVPAGGG", 0.617],
  ["VSAPRLRVSCNP", 0.696],
  ["PRFGPPQLPAKA", 0.754],
  ["AYFPSQRVHHLM", 0.333],
  ["LVKRINKVNNRR", 0.632],
  ["LRARLTGRFIVG", 0.669],
  ["QDLIVENGSVSG", 0.655],
  ["SVSTDTLQVYAI", 0.658],
  ["LSPPPPPPVFSP", 0.727],
  ["KLGRWGARGSGR", 0.655],
  ["DPRRNGAPLRSI", 0.676],
  ["PPARPLFPLPRL", 0.754],
  ["DVAWHNYRISGK", 0.673],
  ["DVGSRGPPHTDG", 0.687],
  ["GQIVFDNSGSRW", 0.695],
  ["VFVRSNSGACKN", 0.682],
  ["SIWLLSGGQCFL", 0.684],
  ["KSKKKKKNKTNR", 0.679],
  ["LGNVTDVMHRLS", 0.48],
  ["PPPSPPSGALTP", 0.763],
  ["SPDGVEILPIRG", 0.684],
  ["VLGASFTATYFQ", 0.749],
  ["RSQRRWCSKIRV", 0.625],
  ["AARSEVASAAGR", 0.643],
  ["LLPPTSRLPRLG", 0.702],
  ["RGHTTYCGPALI", 0.697],
  ["FCSQNLQMNQLS", 0.6],
  ["VHFSSSCDYLIV", 0.653],
  ["SGSMHWTDPPGS", 0.675],
  ["VFFIFFFAFLFF", 0.329],
  ["SINLLFHSFFFL", 0.608],
  ["RDDDSKDKRTEI", 0.684],
  ["LPLPPLPPPSCP", 0.718],
  ["NESGWHNLLMSV", 0.708],
  ["WAVGGKVNEVIE", 0.757],
  ["SPPPASDHPNPL", 0.648],
  ["VSGLKYSVLVGG", 0.555],
  ["GGEGGWLGEGIG", 0.59],
  ["CCLFLACANFFV", 0.551],
  ["TDNIRIERYKEQ", 0.689],
  ["TDYSSPKTSLSR", 0.668],
  ["SYVLIYAPLSSL", 0.661],
  ["RRAAYARVFCRI", 0.641],
  ["FSYFFIFFYMVC", 0.238],
  ["ARNVDNIGYENS", 0.698],
  ["KKTQKNIKKKAK", 0.679],
  ["LAPPTTAGPRPP", 0.599],
  ["WLSLPLAHLFSP", 0.681],
  ["LCGVWWGWWVGL", 0.576],
  ["CACAVPFLLLFF", 0.411],
  ["ERTDEKTAEKER", 0.701],
  ["CPPPCPLYMLLC", 0.264],
  ["SLLSTPPPLASP", 0.669],
  ["CVLWLISLLPDR", 0.563],
  ["RTPMAIDALCGS", 0.637],
  ["GRRHNPRTSSAQ", 0.756],
  ["CPPPPPRPPLPP", 0.689],
  ["THRAVGIGLRCC", 0.358],
  ["ARKCPLLYGPMA", 0.662],
  ["DSRRDYLHLVFT", 0.646],
  ["KERKNKKINRKF", 0.686],
  ["LVSYHKMAISSF", 0.47],
  ["GFAIWRDGKYRR", 0.674],
  ["GKIEVNTRIPGG", 0.646],
  ["LWAYRFAAGEVH", 0.589],
  ["VEGCVKGGCGGG", 0.662],
  ["QNLYLSFLRIKL", 0.624],
  ["QKKKKLAYVGKR", 0.659],
  ["KHFLFSVVHFSG", 0.696],
  ["LSPPVLLAPPQH", 0.59],
  ["LPPSRSPPPFPL", 0.728],
  ["GVGCVGGGSSCA", 0.67],
  ["ALPGHFCVSFLP", 0.752],
  ["ASGVFSRLVLVS", 0.31],
  ["PPITKKITRNTA", 0.676],
  ["TYCFRVCAWRAN", 0.341],
  ["MNLVEIIRGVRL", 0.706],
  ["PAPPLPPPPSPY", 0.72],
  ["PPPSSPPSPVIR", 0.694],
  ["RKTQKIEQKQKE", 0.756]
]}
